Values were extracted from the supplement of paper PMC11208160.

# Test Description: recombinant barcode read abundance after kanamycin selection (control-corrected) (log10(CPM+1)); higher = more efficient recombination; sequences stand for … in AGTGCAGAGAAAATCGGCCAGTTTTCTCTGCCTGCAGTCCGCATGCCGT…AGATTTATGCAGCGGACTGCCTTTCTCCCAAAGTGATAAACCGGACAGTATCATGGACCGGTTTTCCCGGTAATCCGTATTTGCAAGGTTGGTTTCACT; site = the 11-nt target;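 note: IS621 recombinase and bridge RNA in Escherichia coli cells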
Returns the class for an entry based on its recombinant barcode read abundance (log10). Class ranges: band 1 (below 0.04), band 2 (0.04 to below 0.3), band 3 (0.3 or more)

[[record]]
chain = "GCAGGGACTTGGGTTCTAACCTGTTGCCT (site GTAGGGACTAG)"
group_label = "band 3"

[[record]]
chain = "CTCTAAACTTGGGTTCTAACCTGTTGCCG (site CTCTAAACTCG)"
group_label = "band 3"

[[record]]
chain = "TACGGCTCTTGGGTTCTAACCTGTTGCTT (site TACGGCTCTAA)"
group_label = "band 3"

[[record]]
chain = "TTAGAGTCTTGGGTTCTAACCTGTTGCCT (site TTAGAGACTAG)"
group_label = "band 2"

[[record]]
chain = "ACTATGACTTGGGTTCTAACCTGTTGCTT (site GACTATCCTCG)"
group_label = "band 2"

[[record]]
chain = "CAAACCGCTTGGGTTCTAACCTGTTGCCT (site CGAACCGCTAG)"
group_label = "band 3"

[[record]]
chain = "ACCCTAACTTGGGTTCTAACCTGTTGCGG (site ACCTTAGCTCC)"
group_label = "band 1"

[[record]]
chain = "TATTCACCTTGGGTTCTAACCTGTTGCCT (site TATTCACCTAG)"
group_label = "band 3"

[[record]]
chain = "CGTGCGGCTTGGGTTCTAACCTGTTGCCT (site TGTGCGGCTAG)"
group_label = "band 1"

[[record]]
chain = "GCGCTCCCTTGGGTTCTAACCTGTTGCCT (site GCTCTCCCTAG)"
group_label = "band 2"

[[record]]
chain = "AGGGTAGCTTGGGTTCTAACCTGTTGCCT (site AGGGAAGCTAG)"
group_label = "band 2"

[[record]]
chain = "CTCTCGGCTTGGGTTCTAACCTGTTGCCT (site CTCTTGGCTAG)"
group_label = "band 1"

[[record]]
chain = "ACGGTGACTTGGGTTCTAACCTGTTGCCT (site GCGGTGACTAG)"
group_label = "band 1"

[[record]]
chain = "ACCGGTCCTTGGGTTCTAACCTGTTGCGT (site ACCGGTCCTAC)"
group_label = "band 3"

[[record]]
chain = "TGTGCGTCTTGGGTTCTAACCTGTTGCCT (site AGTGCGTCTAG)"
group_label = "band 2"

[[record]]
chain = "TAGATCACTTGGGTTCTAACCTGTTGCAT (site TAGGTCACTAT)"
group_label = "band 1"

[[record]]
chain = "TAGACAGCTTGGGTTCTAACCTGTTGCCT (site TAAACAGCTAG)"
group_label = "band 2"

[[record]]
chain = "CCTAAACCTTGGGTTCTAACCTGTTGCGT (site CCTAACCCTAC)"
group_label = "band 1"

[[record]]
chain = "CTAGACTCTTGGGTTCTAACCTGTTGCAG (site CTAGACTCTGT)"
group_label = "band 3"

